test: yeast display, Sf9 membrane polyspecificity reagent, FACS + sequencing; frameworks hold sequencing errors
property label: polyreactivity (PSR sort gate)

Answered examples (5):
QVQLVESGGGLVQAGGSLRLSCAASGSIFGGNAMGWYRQAPGKERELVATIDFSGTSTYYADSVKGRFTISRDHAKKTVYLQMHSLKPEDTSVSSCNARSYPDYIYWSQRYDYDFWGQGTQVTVSS low polyreactivity
QVQLVESVGGLVQAGGSLRLSCAASGFTIGYNFMGWYRQAPGKERELVATISWNGARTYYADSVKGRFTISRDNAKNTVYLQMNSLKPEDTAVYYCAARRYYRGEYDYWGQGTQVTVSS low polyreactivity
QVQLVESGGGLVQAGGSLRLSCAASGSTLFWNAMGWYRKAPGKERELVAVISFSGVSTYYADSVKGRFTISRDNAKNTVYLQLNSLKPEDTAVYYCAAGRCLYYYYGYVDKYGYWGQGTQVTVSS low polyreactivity
QVQLQESGGGLVQAGGSLRLSCASSGSIYDDTYMGWYRQAPGKERELVATIDSGSTTNYADSVKRRITISRDNAKNTVYLQMNSLKPEDTAVYYCAAADSHIDYFDYWGQGTQVTVSS low polyreactivity
QVQLVESGGGLVQAGGSLRLSCAASGITFRRYAMGWYRQAPGKERELVAAISRSGGSTRYADSVKGRFTISRDNAKNTVYLLMNSLKPEDTAVYYCAADGVPGRAVDYEYWGQGTQVTVSS high polyreactivity

Query :: For the sequence QVQLVESGGGLVQAGGSLRLSCAASGFTFYSYAMGWYRQAPGKERELVAAISWSGTRTYYADSVKGRFTISRDNAKNTVYLQMNSLKPEDTAVFYCAARGYRYGYGYWGQGTQVTVSS , give its measured polyreactivity (PSR sort gate) value.
Result :: high polyreactivity

Query :: Give polyreactivity (PSR sort gate) for QVQLVESGGGLVQAGGSLRLSCAASGYIYAYYAMGWYRQAPGKERELVAAITGRGDTTYYADSVKGRFTISRDNAKNTVYLQMNSLIPEDTAVYYCNAEKPTYYYVPGKYDVDYWGQGTQVTVSS
Result :: low polyreactivity

Query :: Report polyreactivity (PSR sort gate), nothing else, for this sequence: QVQLVESGGGLVQAGGSLRLSCAASGRIFYGYAMGWYRQAPGNERELVAAISSSGGSTYYADSVKGRFTISRDNAKYTVYLQMNSLKPDDTAVYYCNAQLYRPGYWYDYWGQGTQVTVSS
Result :: high polyreactivity

Query :: Determine from records and report polyreactivity (PSR sort gate) for QVQLVESGGCLVQAGGSLRLSCAASAFIFVGNDMGLYRQAPGKEREFVAAISSGGTTNYADSVKGRFTISRDNAKNTVYLQMNSLKPEDTAVYYCGADYDYRQGYDSVHLDYWVQGTQVTVSS
Result :: low polyreactivity

Query :: Report measured polyreactivity (PSR sort gate); entry is QDQLVESGGGLVQAGGSLRLSCAASGSIFKINAMGWYRQATGKERELVATITWSTGTTYYADSVKGRFTISRDNAKNTVYLQMNSLKPEDTAVYYCATDGDSTKLDYWGQGTQVTVSS
Result :: low polyreactivity

Query :: Retrieve polyreactivity (PSR sort gate) measured for QVQLVESGGGLVQAGGSLRLSCAASGRIRRYYAMGWYRPAPGKEMELVAVITSSDGSTYYADSVKGRFTISRDNAKTTVYLQMNSLKPEDTAVDYCAAAPLWRLDSWSDPYRRYDYWGQGTQVTVSS and print it.
Result :: low polyreactivity
